- TEST SYSTEM: hERG K+ channel (Homo sapiens, UniProt Q12809)
- Construct: expressed in transfected cells; host or cells: CHO (Chinese hamster ovary)
- Sequence (Q12809 whole entry): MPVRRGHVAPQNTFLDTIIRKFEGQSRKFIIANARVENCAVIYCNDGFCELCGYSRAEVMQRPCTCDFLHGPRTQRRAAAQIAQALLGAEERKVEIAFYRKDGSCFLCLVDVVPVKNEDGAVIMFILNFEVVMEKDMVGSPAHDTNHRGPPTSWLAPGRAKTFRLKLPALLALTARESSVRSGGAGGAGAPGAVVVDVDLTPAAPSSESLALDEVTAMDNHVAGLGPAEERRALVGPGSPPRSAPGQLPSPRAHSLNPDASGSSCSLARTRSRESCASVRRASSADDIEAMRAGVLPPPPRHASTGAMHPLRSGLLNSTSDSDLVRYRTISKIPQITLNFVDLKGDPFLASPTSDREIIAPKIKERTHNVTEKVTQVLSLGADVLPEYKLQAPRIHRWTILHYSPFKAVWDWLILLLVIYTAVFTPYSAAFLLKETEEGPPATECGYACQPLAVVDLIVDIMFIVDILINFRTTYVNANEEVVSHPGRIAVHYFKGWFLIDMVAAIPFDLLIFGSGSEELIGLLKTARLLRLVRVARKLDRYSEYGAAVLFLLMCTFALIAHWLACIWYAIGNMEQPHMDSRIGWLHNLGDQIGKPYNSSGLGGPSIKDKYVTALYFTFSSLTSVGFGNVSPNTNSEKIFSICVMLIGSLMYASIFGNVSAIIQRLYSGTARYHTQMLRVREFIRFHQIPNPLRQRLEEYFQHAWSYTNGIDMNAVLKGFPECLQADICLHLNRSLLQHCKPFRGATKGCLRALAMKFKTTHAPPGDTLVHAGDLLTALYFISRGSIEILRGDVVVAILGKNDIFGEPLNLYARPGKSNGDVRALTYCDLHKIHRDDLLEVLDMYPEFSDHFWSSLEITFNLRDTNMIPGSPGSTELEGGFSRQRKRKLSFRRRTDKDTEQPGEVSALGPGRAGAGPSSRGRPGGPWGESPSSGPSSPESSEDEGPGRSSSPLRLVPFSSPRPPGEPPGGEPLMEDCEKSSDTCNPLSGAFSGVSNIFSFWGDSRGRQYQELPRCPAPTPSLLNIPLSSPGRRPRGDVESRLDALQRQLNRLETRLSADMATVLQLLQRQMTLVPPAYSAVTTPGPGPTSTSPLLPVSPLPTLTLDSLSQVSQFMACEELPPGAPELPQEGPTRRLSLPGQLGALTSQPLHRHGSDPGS
- PROCEDURE TEXT: hERG channel inhibition assay (patch-clamp, CHO-hERG cells)
- Assay type: cell-based
- EXPERIMENTAL SETUP: safety ratio
Below is a list of entries, each paired with its recorded hERG IC20/TLR7 IC50 value.

STRUCTURE	TEST SYSTEM	hERG IC20/TLR7 IC50
COC[C@H]1CN(c2ccc([C@H]3CCN(c4cc(C)nc5c4cnn5C)C[C@@H]3C)nc2)CCN1	hERG K+ channel (Homo sapiens, UniProt Q12809)	>1111.1
Cc1cc(N2CC[C@H](c3ccc(N4CC(C)(N)C4)cn3)[C@@H](C)C2)c2cnn(C)c2n1	hERG K+ channel (Homo sapiens, UniProt Q12809)	>625.0
Cc1cc(N2CCC(c3ccc(N4CCNCC4)cn3)CC2)c2cnn(C)c2n1	hERG K+ channel (Homo sapiens, UniProt Q12809)	>370.4
CO[C@@H]1CN(c2ccc([C@H]3CCN(c4cc(C)nc5c4cnn5C)C[C@@H]3C)nc2)C[C@H]1N	hERG K+ channel (Homo sapiens, UniProt Q12809)	>555.6
